Target: T1, cynomolgus IL-18BP (cynomolgus monkey)
T1 construct: Generated in-house; also called cyIL-18BP; cyno IL-18BP
T1 chain: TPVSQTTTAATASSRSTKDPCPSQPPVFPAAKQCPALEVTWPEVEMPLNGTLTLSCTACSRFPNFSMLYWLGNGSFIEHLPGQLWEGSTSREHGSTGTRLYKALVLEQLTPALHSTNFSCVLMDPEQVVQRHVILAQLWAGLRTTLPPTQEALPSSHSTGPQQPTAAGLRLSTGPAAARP
Experiment: BLI (Octet), mAb on AHC biosensor
pKd: −log10 of the molar value.

| BINDER | pKd |
| --- | --- |
| SA33a (antibody, human IgG1, V domains shown, murine variable regions on human IgG1 kappa constant regions) VH: QVQLQQSGAELVRPGVSVKISCKGSGYTFTDYAMHWVKQSHAKSLEWIGVISTYYGDASYNQKFKGKATMTVDKSSSTAYMELARLTSEDSAIYYCARERDYYGSRLFDYWGQGTTLTVSS VL: EIVLTQSPTTMAASPGEKITITCSANSSISSNYLHWYQQKPGFSPKLLIYGTSNLASGVPARFSGSGSGTSYSLTIGTMEAEDVATYYCQQGSSIPYTFGGGTKLEIK | 7.80 |
| SA32a (antibody, human IgG1, V domains shown, murine variable regions on human IgG1 kappa constant regions) VH: EVQLQQSGPELVKTGASVKISCKASGYSFTGYYMHWVKQSHGKSLEWIGYISCYNGATSYNQKFKGKATFTVDTSSSTAYMQFNSLTSEDSAVYYCAITLHYAMDYWGQGTSVAS VL: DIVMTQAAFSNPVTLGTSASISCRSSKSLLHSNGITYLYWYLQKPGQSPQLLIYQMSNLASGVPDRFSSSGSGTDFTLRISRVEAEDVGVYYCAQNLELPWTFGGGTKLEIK | 7.72 |
| SA34a (antibody, human IgG1, V domains shown, murine variable regions on human IgG1 kappa constant regions) VH: QVQLQQSGAELARPGASVKLSCKASGYTFTDYYINWVKQRTGQGLEWIGEIYPGSGNTYYNEKFKGKATLTADKSSSTAYMQLSSLTSEDSAVYFCARGYYGRFAYWGQGTLVTVSA VL: DIVMTQAAFSNPVTLGTSASISCRSSKSLLHSNGITYLYWYLQKPGQSPQLLIYQMSNLASGVPDRFSSSGSGTDFTLRISRVEAEDVGVYYCDQNLELPFTFGSGTKLEIK | 7.92 |
| SA31a (antibody, human IgG1, V domains shown, murine variable regions on human IgG1 kappa constant regions) VH: QVQLQQPGSELVRPGASVKLSCKASGYTFTSYWMHWVKQRPGQGLEWIGNIYPGSGNTIYDEKFKSKATLTVDTSSSTAYMQLSSLTSEDSAVYYCTRWDNWEGYYFDYWGQGTTLTVSS VL: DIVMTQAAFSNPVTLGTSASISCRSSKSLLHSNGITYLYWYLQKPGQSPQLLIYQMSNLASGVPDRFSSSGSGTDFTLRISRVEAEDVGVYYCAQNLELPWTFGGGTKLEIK | 8.30 |
